test-description: GPCRScan assay: inhibition of GABA/PBR
Parameters: species or system Rattus norvegicus; radioligand conc. used [nm] 0.3 – 2.0, parental cells brain tissue
value-type: Ki

Given item CCC(=N\O)/C(C)=C/c1ccc(F)c(C)c1 , the value recorded as its Ki is 3.69 µM

###

# Ki listing for each entry below
assayed-target: Sigma non-opioid intracellular receptor 1 (Homo sapiens)
Sequence (Q99720 whole entry): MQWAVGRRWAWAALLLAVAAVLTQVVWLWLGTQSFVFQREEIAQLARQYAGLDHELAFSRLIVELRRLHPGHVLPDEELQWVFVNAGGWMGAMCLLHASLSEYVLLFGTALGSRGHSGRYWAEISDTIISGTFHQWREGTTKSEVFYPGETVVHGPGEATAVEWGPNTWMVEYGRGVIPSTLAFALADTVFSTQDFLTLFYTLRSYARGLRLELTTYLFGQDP
test-description: GPCRScan assay: inhibition of Sigma 1
Design: radioligand conc. used [nm] 4.0 – 5.0, parental cells HEKT
measurement-context: read-out: Ki
State the answer as a number, implicitly in nM.

Given item CCC(=N\O)/C(C)=C/c1ccc(F)c(C)c1 , the value recorded as its Ki is 529

Given item CCC(=N\O)/C(C)=C/c1ccc(F)cc1 , the value recorded as its Ki is 505

###

assayed-target: Ca2+ channel (voltage-gated L-type calcium channel family) (Homo sapiens, UniProt O60840+Q01668+Q13698+Q13936)
test-description: Ca2+ channel CEREP ligand profiling
Type: protein assay
measurement-context: probe penylalkylamine (ligand); compound concentration 10 uM
value-type: inhibition at 10 µM

Given item CCC(=N\O)/C(C)=C/c1ccc(F)cc1 [A-079] , the value recorded as its inhibition at 10 µM is 3% (not active)

###

assayed-target: Na+ channel (sodium channel alpha subunit family) (Homo sapiens, UniProt P35498+P35499+Q01118+Q14524+Q15858+Q99250+Q9NY46+Q9UI33+Q9UQD0+Q9Y5Y9)
test-description: Na+ channel CEREP ligand profiling
Format: protein assay
measurement-context: probe veratridine (ligand); compound concentration 10 uM
value-type: inhibition at 10 µM

Given item CCC(=N\O)/C(C)=C/c1ccc(F)cc1 [A-079] , the value recorded as its inhibition at 10 µM is 17% (not active)
